The measurements presented in this section are drawn from paper PMC11629141.

- TGT: 6G11 (BI‐1206), full‐length antibody containing the PGLALA Fc mutations (human)
- Sequence (VH, as listed by the source, chain 1 of 2): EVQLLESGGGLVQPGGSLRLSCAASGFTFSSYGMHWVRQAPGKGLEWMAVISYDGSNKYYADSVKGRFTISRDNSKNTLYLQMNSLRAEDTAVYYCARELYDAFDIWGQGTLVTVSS
- Sequence (VL, as listed by the source, chain 2 of 2): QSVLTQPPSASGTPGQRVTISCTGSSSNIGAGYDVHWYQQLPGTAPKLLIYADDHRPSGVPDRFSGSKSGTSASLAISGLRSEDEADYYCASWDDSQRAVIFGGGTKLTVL
- TEST_PROTOCOL: BLI
READOUT_KIND: pKd
Answers are plain numbers, as −log10 of the molar value.

// known answers, use as guide
binder="S2B W104A scFv, solitary (scFv, V domains shown) VH: AVTLDESGGGLQTPGGGLSLVCKASGFTFSSYSMVWVRQAPSKRLEWVAGIYSSATWTYYAPAVKGRATISRDNGQSTVRLQLNDLRAEDTGTYFCAKTSRSGATAYSASAIDAWGHGTEVIV VL: ALTQPSSVSANPGETVKITCSGGSSYYGWYQQKSPGSAPVTVIYSNDKRPSDIPSRFSGSTSGSTATLTITGVQADDEAVYFCGGYDSNIHGGIFGAGTTLTVL" readout_kind=pKd result=8.02
binder="S2B scFv (blocking anti‐6G11 scFv clone 2), solitary (scFv, V domains shown) VH: AVTLDESGGGLQTPGGGLSLVCKASGFTFSSYSMVWVRQAPSKRLEWVAGIYSSATWTYYAPAVKGRATISRDNGQSTVRLQLNDLRAEDTGTYFCAKTSRSGWTAYSASAIDAWGHGTEVIV VL: ALTQPSSVSANPGETVKITCSGGSSYYGWYQQKSPGSAPVTVIYSNDKRPSDIPSRFSGSTSGSTATLTITGVQADDEAVYFCGGYDSNIHGGIFGAGTTLTVL" readout_kind=pKd result=9.00
binder="S2B Y52A scFv, solitary (scFv, V domains shown) VH: AVTLDESGGGLQTPGGGLSLVCKASGFTFSSYSMVWVRQAPSKRLEWVAGIASSATWTYYAPAVKGRATISRDNGQSTVRLQLNDLRAEDTGTYFCAKTSRSGWTAYSASAIDAWGHGTEVIV VL: ALTQPSSVSANPGETVKITCSGGSSYYGWYQQKSPGSAPVTVIYSNDKRPSDIPSRFSGSTSGSTATLTITGVQADDEAVYFCGGYDSNIHGGIFGAGTTLTVL" readout_kind=pKd result=8.37

Turning to the following binder.
Lab note: measured pKd of S2B S164A scFv, solitary (scFv, V domains shown) VH: AVTLDESGGGLQTPGGGLSLVCKASGFTFSSYSMVWVRQAPSKRLEWVAGIYSSATWTYYAPAVKGRATISRDNGQSTVRLQLNDLRAEDTGTYFCAKTSRSGWTAYSASAIDAWGHGTEVIV VL: ALTQPSSVSANPGETVKITCSGGASYYGWYQQKSPGSAPVTVIYSNDKRPSDIPSRFSGSTSGSTATLTITGVQADDEAVYFCGGYDSNIHGGIFGAGTTLTVL was 9.10
